- experimental-system: MAP1LC3B ATG8 (2–119) (human, UniProt Q9GZQ8 2-119)
- assay-text: fluorescence polarisation
Square brackets hold non-standard residues; d marks the D form. * marks the point of attachment. FITC = O=C1OC2(c3ccc(O)cc3Oc3cc(O)ccc32)c2ccc(NC(=S)*)cc21; pY = N[C@@H](Cc1ccc(OP(=O)(O)O)cc1)C(=O)O; pS = N[C@@H](COP(=O)(O)O)C(=O)O
experimental-endpoint: Kd

Some binders with recorded Kd:
{"binder": "{FITC}-RSGENP[pY]ASIDISKGE-NH2 [FITC-labeled ACE2(775–790) peptide, pTyr781]", "Kd": "> 100 µM"}
{"binder": "{FITC}-RSGENPYA[pS]IDISKGE-NH2 [FITC-labeled ACE2(775–790) peptide, pSer783]", "Kd": "> 100 µM"}

get_value(item= {FITC}-RSGENPYASIDISKGE-NH2 [FITC-labeled ACE2(775–790) peptide, unphosphorylated] , readout=Kd) returns > 100 µM
